Assay: physchem
Conditions: octanol/phosphate buffer, pH 7.4
endpoint-label: logD
# respond with the number and nothing more

Recorded results for 3 compounds are shown here.
compound | reported-value
O=C(O)Cc1nn(Cc2nc3cc(C(F)(F)F)ccc3s2)c(=O)c2cscc12 [Compound XII] | -0.09
O=C(O)Cc1nn(Cc2nc3cc(F)ccc3s2)c(=O)c2cscc12 [Compound XIV] | -0.87
O=C(O)Cc1nn(Cc2cc3ccccc3o2)c(=O)c2cscc12 [Compound XXVI] | -0.86

Okay, now this compound:
[in] Record request: logD value, item O=C(O)Cc1nn(Cc2nc3cc(Cl)ccc3s2)c(=O)c2cscc12 [Compound XX]
[out] -0.35
